- Tested on: SMN2 mRNA
- assayDetails: RT-qPCR splicing assay panel, SMN2 canonical junction (CJ) mRNA
- Format: cell-based, human
- conditionParameters: Homo sapiens, canonical junction (CJ) mRNA, RT-qPCR panel, Table 4A; read-out: SMN2, decrease in CJ mRNA levels, IC50
pIC50: −log10 of the molar value.
testReadout: pIC50

INSERT INTO results (compound, measuredresult) VALUES
  ('COc1cc(-c2ccc(-c3ccc(N4CC[C@@H](NCC5CC5)C4)nn3)c(O)c2)cnn1 [Compound 288]', '> 7.00'),
  ('COc1cc(-c2ccc(-c3ccc(N4CCC(NC56CC(C5)C6)C4)nn3)c(O)c2)cnn1 (stereo not shown) [Compound 335]', '6.00 to 7.00'),
  ('COc1cc(-c2cc(O)c(-c3ccc(N4CC[C@H](NC5(C)CCC5)C4)nn3)cc2F)cnn1 [Compound 299]', '> 7.00'),
  ('COc1cc(-c2ccc(-c3ccc(N4CC[C@H](N[C@H]5C[C@@H](F)C5)C4)nn3)c(O)c2)ncn1 [Compound 407]', '6.00 to 7.00'),
  ('COc1cc(-c2ccc(-c3ccc(N4CC[C@H](NC(C)(C)C)C4)nn3)c(O)c2)ncn1 [Compound 283]', '> 7.00'),
  ('COc1cncc(-c2cc(O)c(-c3ccc(N4CC[C@@H](NC5CCC5)C4)nn3)cc2F)c1 [Compound 225]', '< 5.00'),
  ('Oc1cc(-c2ccc(-c3ccc(N4CC[C@H](NC5CCC5)C4)nn3)c(O)c2)cnn1 [Compound 420]', '6.00 to 7.00');
